- Assay target: T1, human EGFR-His antigen (human, UniProt P00533 25-645)
- T1 construct: also called hEGFR-His
- Procedure summary: SPR Biacore 8K, antibody on Protein A chip, 1:1 fit
# label = bin(measured kon), where bins are range 1: < 80000 M⁻¹ s⁻¹; range 2: ≥ 80000 M⁻¹ s⁻¹ and < 100000 M⁻¹ s⁻¹; range 3: ≥ 100000 M⁻¹ s⁻¹

Binder | Category label
ZalH8 (antibody, human IgG1, kappa, V domains shown, anti-EGFR zalutumumab variant, human IgG1) VH: QVQLVESGGGVVQPGRSLRLSCAASGFTFSSYGMHWVRQAPGKGLEWVAVIWDDGSYKYYGDSVKGRFTISRDNSKNTLYLQMNSLRAEDTAVYYCARDGLTMVRGVMKDYFDYWGQGTLVTVSS VL: DIQLTQSPSSLSASVGDRVTITCRASQDISSALVWYQQKPGKAPKLLIYDASSLESGVPSRFSGSESGTDFTLTISSLQPEDFATYYCQQFNSYPLTFGGGTKVEIKR | range 1
ZalH10 (antibody, human IgG1, kappa, V domains shown, anti-EGFR zalutumumab variant, human IgG1) VH: QVQLVESGGGVVQPGRSLRLSCAASGFTFSSYGMHWVRQAPGKGLEWVAVIWDDGSYKYYGDSVKGRFTISRDNSKNTLYLQMNSLRAEDTAVYYCARDGATMVRGVMKDYFDYWGQGTLVTVSS VL: DIQLTQSPSSLSASVGDRVTITCRASQDISSALVWYQQKPGKAPKLLIYDASSLESGVPSRFSGSESGTDFTLTISSLQPEDFATYYCQQFNSYPLTFGGGTKVEIKR | range 3
ZalH13 (antibody, human IgG1, kappa, V domains shown, anti-EGFR zalutumumab variant, human IgG1) VH: QVQLVESGGGVVQPGRSLRLSCAASGFTFSSYAMHWVRQAPGKGLEWVAVIWDDGSYKYYGDSVKGRFTISRDNSKNTLYLQMNSLRAEDTAVYYCARDGITMVRGVMKDYFDYWGQGTLVTVSS VL: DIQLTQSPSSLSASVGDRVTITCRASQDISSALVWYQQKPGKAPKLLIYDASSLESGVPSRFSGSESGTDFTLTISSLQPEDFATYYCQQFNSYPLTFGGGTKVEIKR | range 2
ZalH9 (antibody, human IgG1, kappa, V domains shown, anti-EGFR zalutumumab variant, human IgG1) VH: QVQLVESGGGVVQPGRSLRLSCAASGFTFSSYGMHWVRQAPGKGLEWVAVIWDDGSYKYYGDSVKGRFTISRDNSKNTLYLQMNSLRAEDTAVYYCARDGVTMVRGVMKDYFDYWGQGTLVTVSS VL: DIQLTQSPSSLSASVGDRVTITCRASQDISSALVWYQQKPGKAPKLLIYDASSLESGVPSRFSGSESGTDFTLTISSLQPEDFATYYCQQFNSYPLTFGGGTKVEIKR | range 1
ZalH14 (antibody, human IgG1, kappa, V domains shown, anti-EGFR zalutumumab variant, human IgG1) VH: QVQLVESGGGVVQPGRSLRLSCAASGFTFSTYGMHWVRQAPGKGLEWVAVIWYDGSNKYYADSVKGRFTISRDNSKNTLYLQMNSLRAEDTAVYYCARDGITMVRGVMKDYFDYWGQGTLVTVSS VL: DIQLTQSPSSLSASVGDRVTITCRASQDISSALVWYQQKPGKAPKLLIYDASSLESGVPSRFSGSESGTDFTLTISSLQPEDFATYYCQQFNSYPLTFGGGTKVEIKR | range 3
ZalH5 (antibody, human IgG1, kappa, V domains shown, anti-EGFR zalutumumab variant, human IgG1) VH: QVQLVESGGGVVQPGRSLRLSCAASGFTFSTYGMHWVRQAPGKGLEWVAVIWDDGSYKYYGDSVKGRFTISRDNSKNTLYLQMNSLRAEDTAVYYCARDGATMVRGVMKDYFDYWGQGTLVTVSS VL: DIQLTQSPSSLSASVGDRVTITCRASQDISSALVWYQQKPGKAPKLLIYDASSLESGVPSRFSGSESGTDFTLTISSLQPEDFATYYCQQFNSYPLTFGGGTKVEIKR | range 3
ZalH2 (antibody, human IgG1, kappa, V domains shown, anti-EGFR zalutumumab variant, human IgG1) VH: QVQLVESGGGVVQPGRSLRLSCAASGFTFSTYGMHWVRQAPGKGLEWVAVIWEDGSYKYYGDSVKGRFTISRDNSKNTLYLQMNSLRAEDTAVYYCARDGITMVRGVMKDYFDYWGQGTLVTVSS VL: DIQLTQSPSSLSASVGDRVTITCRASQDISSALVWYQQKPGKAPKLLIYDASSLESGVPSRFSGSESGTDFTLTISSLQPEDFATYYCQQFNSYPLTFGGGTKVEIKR | range 2
ZalH12 (antibody, human IgG1, kappa, V domains shown, anti-EGFR zalutumumab variant, human IgG1) VH: QVQLVESGGGVVQPGRSLRLSCAASGFTFSTYGMHWVRQAPGKGLEWVAVIWDDGSNKYYGDSVKGRFTISRDNSKNTLYLQMNSLRAEDTAVYYCARDGITMVRGVMKDYFDYWGQGTLVTVSS VL: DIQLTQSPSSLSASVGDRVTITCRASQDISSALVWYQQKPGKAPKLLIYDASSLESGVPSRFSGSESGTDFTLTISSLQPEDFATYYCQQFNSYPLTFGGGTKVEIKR | range 3
